Tested on: patient-derived tumor organoids (PDTOs), esophageal adenocarcinoma
Assay: Endoxifen screen in PDTOs: esophageal adenocarcinoma
Assay type: cell-based, human
Conditions: Homo sapiens, Patient 14, four-parameter logistic fit
ENDPOINT: IC50 (µM)
I only need the number, in µM, no unit after it.

Q) # query: IC50 of entry CC/C(=C(\c1ccc(O)cc1)c1ccc(OCCNC)cc1)c1ccccc1 [Endoxifen, 4-hydroxy-N-desmethyltamoxifen]
A) 3.97

====

Test system: patient-derived tumor organoids (PDTOs), neuroblastoma
Experiment: Endoxifen screen in PDTOs: neuroblastoma
Assay type: cell-based, human
Settings: Homo sapiens, each line one patient sample, four-parameter logistic fit
ENDPOINT: pIC50
pIC50 is defined as minus the log10 of a concentration measured in mol/L.

Q) # query: pIC50 of entry CC/C(=C(\c1ccc(O)cc1)c1ccc(OCCNC)cc1)c1ccccc1 [Endoxifen, 4-hydroxy-N-desmethyltamoxifen]
A) 5.24
